Recorded Specific activities, one value per entry.
Target: Ima3pL240P (Saccharomyces cerevisiae, UniProt P0CW40, L240P)
Sequence (P0CW40 whole entry L240P): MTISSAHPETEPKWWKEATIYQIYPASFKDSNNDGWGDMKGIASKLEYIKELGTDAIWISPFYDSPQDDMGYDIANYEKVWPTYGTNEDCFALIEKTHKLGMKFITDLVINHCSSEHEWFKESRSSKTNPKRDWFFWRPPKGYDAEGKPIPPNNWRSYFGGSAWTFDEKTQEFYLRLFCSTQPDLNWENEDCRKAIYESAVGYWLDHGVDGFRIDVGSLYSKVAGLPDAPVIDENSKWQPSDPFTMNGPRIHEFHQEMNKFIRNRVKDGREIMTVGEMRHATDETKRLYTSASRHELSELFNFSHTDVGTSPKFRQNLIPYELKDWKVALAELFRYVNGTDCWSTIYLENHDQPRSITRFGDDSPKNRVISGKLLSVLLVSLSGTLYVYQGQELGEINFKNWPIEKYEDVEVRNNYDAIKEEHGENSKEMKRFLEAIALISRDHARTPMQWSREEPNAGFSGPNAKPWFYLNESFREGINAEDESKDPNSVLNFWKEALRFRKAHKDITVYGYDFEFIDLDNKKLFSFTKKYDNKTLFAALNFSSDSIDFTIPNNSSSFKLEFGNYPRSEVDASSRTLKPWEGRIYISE
Experiment: Substrate specificity of purified isomaltase variant
Format: biochemical
Conditions: 100 mM substrate (pNPG 5 mM), citrate–potassium phosphate buffer, pH 7, 30 °C
Quick reminder: number only, in µmol/min/mg, skip the unit.

Take a look at these entries with their results.
Compound	Specific activities [µmol/min/mg]
OC[C@H]1O[C@@](CO)(O[C@H]2O[C@H](CO)[C@@H](O)[C@H](O)[C@H]2O)[C@@H](O)[C@@H]1O	11.2
OC[C@H]1O[C@H](OC[C@H]2O[C@H](O[C@H]3[C@H](O)[C@@H](O)C(O)O[C@@H]3CO)[C@H](O)[C@@H](O)[C@@H]2O)[C@H](O)[C@@H](O)[C@@H]1O (stereo partly drawn)	0

Shifting focus to the compound that follows.
**Query** What measured Specific activities goes with COC1OC(CO)C(O)C(O)C1O (stereo not drawn) [α-MG, α-Methylglucopyranoside] ?
**Result** 6.5

---

Recorded Km, one value per entry.
Biological target: Ima5p (Saccharomyces cerevisiae)
Assay: Kinetic parameters for selected substrates
Format: biochemical
Details: affinity constant for the substrate, mean ± SEM
Quick reminder: number only, in mM, skip the unit.

Molecule	Tested on	Observed value
OC[C@H]1O[C@H](OC[C@H]2O[C@H](OC[C@H]3OC(O)[C@H](O)[C@@H](O)[C@@H]3O)[C@H](O)[C@@H](O)[C@@H]2O)[C@H](O)[C@@H](O)[C@@H]1O (stereo partly shown)	Ima5p (Saccharomyces cerevisiae)	83
OC[C@H]1O[C@H](OC[C@H]2OC(O)(CO)[C@@H](O)[C@@H]2O)[C@H](O)[C@@H](O)[C@@H]1O (stereo partly shown)	Ima5p (Saccharomyces cerevisiae)	12
OC[C@H]1O[C@H](OC[C@H]2O[C@H](O[C@H]3[C@H](O)[C@@H](O)C(O)O[C@@H]3CO)[C@H](O)[C@@H](O)[C@@H]2O)[C@H](O)[C@@H](O)[C@@H]1O (stereo partly shown)	Ima5p (Saccharomyces cerevisiae)	82

Shifting focus to the molecule that follows.
**Query** Reported Km for Ima5p (Saccharomyces cerevisiae), given OC[C@H]1O[C@H](OC[C@H]2O[C@H](O)[C@H](O)[C@@H](O)[C@@H]2O)[C@H](O)[C@@H](O)[C@@H]1O ?
**Result** 13

---

Recorded Specific activities, one value per entry.
Biological target: Ima5p (Saccharomyces cerevisiae, UniProt P40884)
Sequence (P40884 whole entry): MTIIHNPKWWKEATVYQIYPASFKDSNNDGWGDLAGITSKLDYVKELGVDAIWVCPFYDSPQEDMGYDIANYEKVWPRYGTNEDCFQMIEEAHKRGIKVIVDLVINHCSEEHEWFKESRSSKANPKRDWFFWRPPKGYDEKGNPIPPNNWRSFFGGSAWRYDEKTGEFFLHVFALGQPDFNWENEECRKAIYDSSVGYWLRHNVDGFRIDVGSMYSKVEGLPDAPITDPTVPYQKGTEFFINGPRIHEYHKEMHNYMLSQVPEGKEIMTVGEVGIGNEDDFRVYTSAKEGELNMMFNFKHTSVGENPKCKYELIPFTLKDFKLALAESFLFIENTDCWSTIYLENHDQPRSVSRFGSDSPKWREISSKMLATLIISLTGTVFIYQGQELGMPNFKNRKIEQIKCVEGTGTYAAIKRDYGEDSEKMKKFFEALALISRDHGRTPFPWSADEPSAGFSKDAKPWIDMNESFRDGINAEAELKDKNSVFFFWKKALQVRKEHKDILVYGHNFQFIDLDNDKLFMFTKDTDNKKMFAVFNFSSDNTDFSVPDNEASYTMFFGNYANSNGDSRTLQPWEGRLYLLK
Assay: Substrate specificity of purified isomaltase
Type: biochemical
Details: 100 mM substrate (pNPG 5 mM), citrate–potassium phosphate buffer, pH 7, 30 °C

Molecule	Tested on	Specific activities
OC[C@H]1O[C@H](OC[C@H]2O[C@H](O[C@H]3[C@H](O)[C@@H](O)C(O)O[C@@H]3CO)[C@H](O)[C@@H](O)[C@@H]2O)[C@H](O)[C@@H](O)[C@@H]1O (stereo partly shown)	Ima5p (Saccharomyces cerevisiae, UniProt P40884)	11 µmol/min/mg
OC[C@H]1O[C@H](OC[C@H]2O[C@H](OC[C@H]3OC(O)[C@H](O)[C@@H](O)[C@@H]3O)[C@H](O)[C@@H](O)[C@@H]2O)[C@H](O)[C@@H](O)[C@@H]1O (stereo partly shown)	Ima5p (Saccharomyces cerevisiae, UniProt P40884)	8.6 µmol/min/mg
OC[C@H]1O[C@H](O[C@H]2[C@H](O)[C@@H](O)[C@@H](O[C@H]3[C@H](O)[C@@H](O)C(O)O[C@@H]3CO)O[C@@H]2CO)[C@H](O)[C@@H](O)[C@@H]1O (stereo partly shown)	Ima5p (Saccharomyces cerevisiae, UniProt P40884)	3.4 µmol/min/mg

Shifting focus to the molecule that follows.
**Query** What measured Specific activities goes with OC[C@H]1O[C@H](O[C@H]2[C@H](O)[C@@H](O)[C@H](O)O[C@@H]2CO)[C@H](O)[C@@H](O)[C@@H]1O ?
**Result** 0 µmol/min/mg
